Target: IR (NIH-3T3 cells over expressing human IGF-1R or IR) (Homo sapiens, UniProt P06213)
Sequence (P06213 28-1382): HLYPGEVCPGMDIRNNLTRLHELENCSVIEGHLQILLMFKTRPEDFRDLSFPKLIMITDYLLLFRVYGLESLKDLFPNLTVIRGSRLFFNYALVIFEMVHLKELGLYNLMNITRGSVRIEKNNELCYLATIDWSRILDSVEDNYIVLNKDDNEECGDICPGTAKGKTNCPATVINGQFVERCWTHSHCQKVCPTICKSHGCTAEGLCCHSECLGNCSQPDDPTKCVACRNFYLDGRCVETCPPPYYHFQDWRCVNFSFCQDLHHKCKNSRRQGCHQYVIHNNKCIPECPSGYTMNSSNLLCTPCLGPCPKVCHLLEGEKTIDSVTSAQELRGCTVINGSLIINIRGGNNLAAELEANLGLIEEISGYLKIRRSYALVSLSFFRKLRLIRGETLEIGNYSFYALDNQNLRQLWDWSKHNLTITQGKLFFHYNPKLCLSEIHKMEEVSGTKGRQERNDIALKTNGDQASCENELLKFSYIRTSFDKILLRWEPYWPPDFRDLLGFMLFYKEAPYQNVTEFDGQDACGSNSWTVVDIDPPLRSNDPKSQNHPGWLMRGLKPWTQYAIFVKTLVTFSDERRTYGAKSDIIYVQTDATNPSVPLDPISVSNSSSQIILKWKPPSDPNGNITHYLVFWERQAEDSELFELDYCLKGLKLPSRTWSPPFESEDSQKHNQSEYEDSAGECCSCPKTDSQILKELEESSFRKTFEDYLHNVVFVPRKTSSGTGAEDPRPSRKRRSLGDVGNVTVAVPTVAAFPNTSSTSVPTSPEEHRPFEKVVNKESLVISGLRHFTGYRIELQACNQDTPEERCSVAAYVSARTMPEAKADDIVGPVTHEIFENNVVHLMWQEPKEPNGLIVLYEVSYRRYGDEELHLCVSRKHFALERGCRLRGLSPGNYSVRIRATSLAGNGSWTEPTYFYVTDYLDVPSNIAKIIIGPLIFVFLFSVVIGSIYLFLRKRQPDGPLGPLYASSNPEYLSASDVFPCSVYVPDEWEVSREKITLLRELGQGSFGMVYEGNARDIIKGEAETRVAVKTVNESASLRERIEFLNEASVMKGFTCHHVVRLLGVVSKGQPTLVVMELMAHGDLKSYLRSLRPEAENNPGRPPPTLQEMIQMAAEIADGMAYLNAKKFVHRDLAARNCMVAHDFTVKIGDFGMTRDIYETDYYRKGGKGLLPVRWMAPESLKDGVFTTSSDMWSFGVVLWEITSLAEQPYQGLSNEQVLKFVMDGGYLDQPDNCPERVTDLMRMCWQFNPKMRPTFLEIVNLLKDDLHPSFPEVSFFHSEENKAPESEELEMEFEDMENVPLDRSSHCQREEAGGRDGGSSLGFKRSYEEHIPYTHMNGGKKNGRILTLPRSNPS
Experiment: IR cellular autophosphorylation (DELFIA)
Settings: NIH-3T3 cells over expressing IR, insulin stimulated
Result type: IC50

# Compound, Value reported
data = [
    ("CCOc1cc(N2CCC(N3CCN(CCS(C)(=O)=O)CC3)CC2)ccc1Nc1nccc(-c2c(-c3cccc(C(=O)Nc4c(F)cccc4F)c3)nc3ccccn23)n1 [Example 119]", "< 100 nM"),
]

Query string: Give its IC50 value. Item: COCCN(CCOC)C1CCN(c2ccc(Nc3nccc(-c4c(-c5cccc(C(=O)Nc6c(F)cccc6F)c5)nc5ccccn45)n3)c(OC)c2)CC1 [Example 49]
Result string: < 100 nM

Query string: Give its IC50 value. Item: CCCN1CCN(c2ccc(Nc3nccc(-c4c(-c5ccc(OC)c(C(=O)Nc6c(F)cccc6F)c5)nc5ccccn45)n3)c(OC)c2)CC1 [Example 174]
Result string: < 100 nM

Query string: Give its IC50 value. Item: COc1cc(N2CCC(N3CCC(C(F)(F)F)CC3)CC2)ccc1Nc1nccc(-c2c(-c3cccc(C(=O)Nc4c(F)cccc4F)c3)nc3ccccn23)n1 [Example 52]
Result string: 100 to 500 nM

----------
Molecular target: human IGF-1R (NIH-3T3 cells over expressing human IGF-1R) (Homo sapiens)
Sequence (P08069 31-1367): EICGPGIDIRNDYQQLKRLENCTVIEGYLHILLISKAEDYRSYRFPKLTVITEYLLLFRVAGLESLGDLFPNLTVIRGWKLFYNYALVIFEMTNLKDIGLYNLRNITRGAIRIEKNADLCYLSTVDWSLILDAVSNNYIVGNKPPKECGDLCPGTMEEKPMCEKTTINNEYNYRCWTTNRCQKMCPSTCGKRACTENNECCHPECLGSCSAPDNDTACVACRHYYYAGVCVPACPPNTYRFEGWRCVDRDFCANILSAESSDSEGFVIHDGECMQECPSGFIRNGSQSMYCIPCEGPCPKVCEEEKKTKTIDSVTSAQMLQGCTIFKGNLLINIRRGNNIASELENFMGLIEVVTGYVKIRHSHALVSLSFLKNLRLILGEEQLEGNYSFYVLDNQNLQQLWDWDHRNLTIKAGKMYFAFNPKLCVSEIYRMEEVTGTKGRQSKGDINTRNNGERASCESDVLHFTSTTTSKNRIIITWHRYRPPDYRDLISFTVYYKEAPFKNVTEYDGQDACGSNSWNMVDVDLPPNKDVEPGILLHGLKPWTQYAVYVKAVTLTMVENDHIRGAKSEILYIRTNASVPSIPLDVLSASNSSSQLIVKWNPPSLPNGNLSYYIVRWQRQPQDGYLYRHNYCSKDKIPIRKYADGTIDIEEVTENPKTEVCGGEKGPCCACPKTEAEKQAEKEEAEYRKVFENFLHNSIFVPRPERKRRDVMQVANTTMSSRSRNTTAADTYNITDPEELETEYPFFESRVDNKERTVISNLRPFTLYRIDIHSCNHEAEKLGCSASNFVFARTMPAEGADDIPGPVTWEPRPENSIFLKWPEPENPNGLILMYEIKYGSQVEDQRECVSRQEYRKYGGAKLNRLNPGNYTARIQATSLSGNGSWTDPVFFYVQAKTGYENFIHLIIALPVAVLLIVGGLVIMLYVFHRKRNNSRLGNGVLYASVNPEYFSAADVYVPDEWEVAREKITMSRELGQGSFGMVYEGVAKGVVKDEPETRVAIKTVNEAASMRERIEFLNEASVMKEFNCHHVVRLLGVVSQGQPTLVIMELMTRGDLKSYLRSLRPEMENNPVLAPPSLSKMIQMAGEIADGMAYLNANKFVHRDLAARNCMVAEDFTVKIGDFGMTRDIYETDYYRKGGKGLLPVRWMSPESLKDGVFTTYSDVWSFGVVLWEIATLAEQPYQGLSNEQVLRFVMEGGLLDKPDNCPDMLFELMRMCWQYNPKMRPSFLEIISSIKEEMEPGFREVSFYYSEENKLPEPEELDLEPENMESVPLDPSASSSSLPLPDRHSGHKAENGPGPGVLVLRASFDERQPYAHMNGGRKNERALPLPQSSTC
Experiment: IGF-1R cellular autophosphorylation (DELFIA)
Settings: IGF-1 stimulated
Result type: IC50

Answered examples (8):
# Molecule, Value reported
data = [
    ("CCCN1CCC(c2ccc(Nc3nccc(-c4c(-c5cccc(C(=O)Nc6c(F)cccc6F)c5)nc5ccccn45)n3)c(OCC)c2)CC1", "< 100 nM"),
    ("COCCN1CCN(c2ccc(Nc3nccc(-c4c(-c5ccc(OC)c(C(=O)Nc6c(F)cccc6F)c5)nc5ccccn45)n3)c(OC)c2)CC1", "< 100 nM"),
    ("CCOc1ccc(-c2nc3ccccn3c2-c2ccnc(Nc3ccc(N4CCC(N5CCN(S(C)(=O)=O)CC5)CC4)cc3OC)n2)cc1C(=O)Nc1c(F)cccc1F", "< 100 nM"),
    ("COc1cc(N2CCC(N3CCN(CCF)CC3)CC2)ccc1Nc1nccc(-c2c(-c3ccc(OC)c(C(=O)Nc4c(F)cccc4F)c3)nc3cc(F)ccn23)n1", "< 100 nM"),
    ("COc1cc(N2CCC(N3CCC(O)CC3)CC2)ccc1Nc1nccc(-c2c(-c3cccc(C(=O)Nc4c(F)cccc4F)c3)nc3ccccn23)n1", "< 100 nM"),
    ("COc1cc(N2CCN(S(C)(=O)=O)CC2)c(C)cc1Nc1nccc(-c2c(-c3cccc(C(=O)Nc4c(F)cccc4F)c3)nc3ccccn23)n1", "< 100 nM"),
    ("CCOc1cc(CCN2CCN(C)CC2)ccc1Nc1nccc(-c2c(-c3cccc(C(=O)Nc4c(F)cccc4F)c3)nc3ccccn23)n1", "< 100 nM"),
    ("CCc1cc(Nc2nccc(-c3c(-c4ccc(OC)c(C(=O)Nc5c(F)cccc5F)c4)nc4ccccn34)n2)c(OC)cc1N1CCN(CCS(C)(=O)=O)CC1", "< 100 nM"),
]

Query string: Give its IC50 value. Item: CCOc1cc(N2CCC(N3CCN(S(C)(=O)=O)CC3)CC2)ccc1Nc1nccc(-c2c(-c3cccc(C(=O)Nc4c(F)cccc4F)c3)nc3ccccn23)n1
Result string: < 100 nM

Query string: Give its IC50 value. Item: COc1cc(N2CCC(C3CCN(CCF)CC3)CC2)ccc1Nc1nccc(-c2c(-c3cccc(C(=O)Nc4c(F)cccc4F)c3)nc3ccccn23)n1
Result string: < 100 nM

Query string: Give its IC50 value. Item: COc1cc(N2CCN(S(C)(=O)=O)CC2)ccc1Nc1nccc(-c2c(-c3ccc(OC)c(C(=O)Nc4c(F)cccc4F)c3)nc3ccccn23)n1
Result string: < 100 nM

Query string: Give its IC50 value. Item: COc1ccc(N2CCC(N3CCCCC3)CC2)cc1Nc1nccc(-c2c(-c3cccc(C(=O)Nc4c(F)cccc4F)c3)nc3ccccn23)n1
Result string: 100 to 500 nM

Query string: Give its IC50 value. Item: COc1cc(CCN2CCN(C)CC2)ccc1Nc1nccc(-c2c(-c3ccc(OC)c(C(=O)Nc4c(F)cccc4F)c3)nc3ccccn23)n1
Result string: < 100 nM

Query string: Give its IC50 value. Item: COc1cc(CCN2CCN(C)CC2)ccc1Nc1nccc(-c2c(-c3cccc(C(=O)Nc4c(F)cccc4F)c3)nc3ccccn23)n1
Result string: < 100 nM

Query string: Give its IC50 value. Item: COc1cc([C@H]2CC[C@@H](N3CCN(CCS(C)(=O)=O)CC3)CC2)ccc1Nc1nccc(-c2c(-c3cccc(C(=O)Nc4c(F)cccc4F)c3)nc3ccccn23)n1
Result string: < 100 nM

Query string: Give its IC50 value. Item: COc1cc(N2CCC(N3CCCCC3)CC2)ccc1Nc1nccc(-c2c(-c3cccc(C(=O)Nc4ccc(F)cc4F)c3)nc3ccccn23)n1
Result string: < 100 nM

----------
IC50 values by entry
Biological target: IR (NIH-3T3 cells over expressing human IGF-1R or IR) (Homo sapiens)
Assay: IR cellular autophosphorylation (DELFIA)
Settings: NIH-3T3 cells over expressing IR, insulin stimulated

Answered examples (9):
# Compound, IC50
data = [
    ("CCOc1cc(C2CCN(CCS(C)(=O)=O)CC2)ccc1Nc1nccc(-c2c(-c3ccc(OCC)c(C(=O)Nc4c(F)cccc4F)c3)nc3ccccn23)n1 [Example 185]", "< 100 nM"),
    ("COc1cc(-c2nnc(CN(C)C)o2)ccc1Nc1nccc(-c2c(-c3cccc(C(=O)Nc4c(F)cccc4F)c3)nc3ccccn23)n1 [Example 27]", "> 500 nM"),
    ("CCCN1CCC(c2cc(OC)c(Nc3nccc(-c4c(-c5cccc(C(=O)Nc6c(F)cccc6F)c5)nc5ccccn45)n3)cc2C)CC1 [Example 159]", "< 100 nM"),
    ("CCOc1cc(CCN2CCN(C)CC2)ccc1Nc1nccc(-c2c(-c3cccc(C(=O)Nc4c(F)cccc4F)c3)nc3ccccn23)n1 [Example 147]", "< 100 nM"),
    ("Cc1cc(OC2CCN(C)CC2)ccc1Nc1nccc(-c2c(-c3cccc(C(=O)Nc4c(F)cccc4F)c3)nc3ccccn23)n1 [Example 7]", "> 500 nM"),
    ("COc1cc(N2CCC(N3CCN(CCF)CC3)CC2)c(Cl)cc1Nc1nccc(-c2c(-c3cccc(C(=O)Nc4c(F)cccc4F)c3)nc3ccccn23)n1 [Example 112]", "< 100 nM"),
    ("COc1ccn2c(-c3ccnc(Nc4cccc(OCCN(C)C)c4)n3)c(-c3cccc(C(=O)Nc4ccc(F)cc4F)c3)nc2c1 [Example 16]", "< 100 nM"),
    ("CCOc1ccc(-c2nc3ccccn3c2-c2ccnc(Nc3cc(CC)c(N4CCN(CCS(C)(=O)=O)CC4)cc3OC)n2)cc1C(=O)Nc1c(F)cccc1F [Example 235]", "< 100 nM"),
    ("COc1cc(N2CCC(N3CCCCC3)CC2)ccc1Nc1nccc(-c2c(-c3cccc(C(=O)Nc4c(F)cccc4F)c3)nc3cc(F)ccn23)n1 [Example 195]", "< 100 nM"),
]

Next, consider the following compound.
Query string: Give its IC50 value. Item: COc1cc(N2CCN(CCS(C)(=O)=O)CC2)c(Cl)cc1Nc1nccc(-c2c(-c3ccc(OC)c(C(=O)Nc4c(F)cccc4F)c3)nc3ccccn23)n1 [Example 213]
Result string: < 100 nM

----------
Biological target: IR (NIH-3T3 cells over expressing human IGF-1R or IR) (Homo sapiens, UniProt P06213)
Experiment: IR cellular autophosphorylation (DELFIA)
Conditions: NIH-3T3 cells over expressing IR, insulin stimulated
IC50 values by entry

Answered examples (3):
# Molecule, IC50
records = [
    ("COc1cc(N2CCC(N3CCCCC3)CC2)c(Cl)cc1Nc1nccc(-c2c(-c3cccc(C(=O)Nc4c(F)cccc4F)c3)nc3ccccn23)n1", "< 100 nM"),
    ("CCOc1cc(N2CCN(CCS(C)(=O)=O)CC2)ccc1Nc1nccc(-c2c(-c3ccc(OC)c(C(=O)Nc4c(F)cccc4F)c3)nc3ccccn23)n1", "< 100 nM"),
    ("COc1cc(N2CCN(C3CCN(CCF)CC3)CC2)ccc1Nc1nccc(-c2c(-c3cccc(C(=O)Nc4c(F)cccc4F)c3)nc3ccccn23)n1", "< 100 nM"),
]

Next, consider the following compound.
Query string: So what IC50 did COc1cc(C2CCN(CCF)CC2)ccc1Nc1nccc(-c2c(-c3ccc(OC)c(C(=O)Nc4c(F)cccc4F)c3)nc3ccccn23)n1 get with IR (NIH-3T3 cells over expressing human IGF-1R or IR) (Homo sapiens, UniProt P06213)?
Result string: < 100 nM

----------
Molecular target: human IGF-1R (NIH-3T3 cells over expressing human IGF-1R) (Homo sapiens)
Assay: IGF-1R cellular autophosphorylation (DELFIA)
Conditions: IGF-1 stimulated
pIC50: −log10 of the molar value.
Result type: pIC50

# Compound, Value reported
rows = [
    ("CC(C)COc1cc(N2CCC(N3CCCCC3)CC2)ccc1Nc1nccc(-c2c(-c3cccc(C(=O)Nc4c(F)cccc4F)c3)nc3ccccn23)n1 [Example 32]", "< 6.30"),
    ("CN(C)CCOc1cccc(Nc2nccc(-c3c(-c4cccc(C(=O)Nc5cc(Cl)ccc5F)c4)nc4ccccn34)n2)c1 [Example 9]", "6.30 to 7.00"),
]

Next, consider the following compound.
Query string: Give its pIC50 value. Item: CCOc1cc(N2CCC(N3CCN(S(C)(=O)=O)CC3)CC2)ccc1Nc1nccc(-c2c(-c3ccc(OCC)c(C(=O)Nc4c(F)cccc4F)c3)nc3ccccn23)n1 [Example 222]
Result string: > 7.00
